Target: UniProt P41595
Assay: Human 5-HT2B radioligand binding assay ([3H]-LSD)
Design: host or cells: cell membrane, dosed as 1 unit/well
Conditions: [3H]-LSD displacement (Table 55); read-out: 5-HT2B, Ki
Protocol: The objective of this study was to evaluate the binding properties of test compounds on 5-HT2B. 1) The assay buffer was prepared following Table 25-below. […] 10) The plate was read using a Microbeta2 microplate counter. For reference and test compounds, the results are expressed as % Inhibition, using the normalization equation: N=100-100x(U-C2)/(C1-C2), where U is the unknown value, Cl is the average of high controls, and C2 is the average of low controls. […]
measured_parameter: pKi
Give bare numbers, as −log10 of the molar value.

Request body: readout pKi, system UniProt P41595, query COc1ccc2[nH]cc(CCN(C)CCOC(F)F)c2c1 [Compound I-71] . Return the value. 7.05

###

Can you tell me Remaining Percentage (%) for the items I'm about to list?
Experiment: Rat liver microsomes stability
Type: in vitro ADME
Settings: rat liver microsomes, Without Cofactors, 60 min
Numbers only, in %.

Here are 4 molecules together with their reported answers.
{"molecule": "COc1ccc2[nH]cc(CCN(C)C)c2c1", "unit_annotation": "%", "Remaining Percentage (%)": 23.82}
{"molecule": "COc1ccc2[nH]cc(CCN(C)CCOC(F)F)c2c1", "unit_annotation": "%", "Remaining Percentage (%)": 100.64}
{"molecule": "COc1ccc2[nH]cc(CCN3CC[C@@H](OC)C3)c2c1 [(R) I-66]", "unit_annotation": "%", "Remaining Percentage (%)": 100.00}
{"molecule": "CN(CCOC(F)F)CCc1c[nH]c2ccccc12", "unit_annotation": "%", "Remaining Percentage (%)": 103.65}

Dear colleague, could you send me Remaining Percentage (%) for each of the items below? Thanks.
1. O=C(O)Cc1ccccc1Nc1c(Cl)cccc1Cl
2. CN(C)CCc1c[nH]c2ccc(OCCOC(F)F)cc12
3. COc1ccc2[nH]cc(CCN3CC[C@@H](OC(F)F)C3)c2c1 [(R) I-67]
4. COc1ccc2[nH]cc(CCN3CC[C@H](OC(F)F)C3)c2c1 [(S) I-67]

100.63
52.18
80.30
96.86

###

Test: Pharmacokinetic studies in rat (i.v.)
Assay type: in vivo
Conditions: male, Sprague-Dawley, rat, plasma, intravenous, rat i.v., 1 h, first individual rat (R01/R04); dose 1.37 mg/kg (I-71, I-128), 1.33 mg/kg ((S) I-67); read-out: Plasma concentration
Please go through the items and note down their concentration at 1 h.

The following compounds have reported results that may help.
{"compound": "COc1ccc2[nH]cc(CCN3CC[C@H](OC(F)F)C3)c2c1 [(S) I-67]", "concentration at 1 h": "172 ng/mL"}
{"compound": "COc1ccc2[nH]cc(CCN(C)CCOC(F)F)c2c1 [Compound I-71]", "concentration at 1 h": "61.5 ng/mL"}

Field: next compound
Given the compound CN(C)CCc1c[nH]c2ccc(OCCOC(F)F)cc12 [Compound I-128] , what is its reported concentration at 1 h? 19 ng/mL

###

Target: 5-HT2B receptor (Homo sapiens, UniProt P41595)
Sequence (P41595 whole entry): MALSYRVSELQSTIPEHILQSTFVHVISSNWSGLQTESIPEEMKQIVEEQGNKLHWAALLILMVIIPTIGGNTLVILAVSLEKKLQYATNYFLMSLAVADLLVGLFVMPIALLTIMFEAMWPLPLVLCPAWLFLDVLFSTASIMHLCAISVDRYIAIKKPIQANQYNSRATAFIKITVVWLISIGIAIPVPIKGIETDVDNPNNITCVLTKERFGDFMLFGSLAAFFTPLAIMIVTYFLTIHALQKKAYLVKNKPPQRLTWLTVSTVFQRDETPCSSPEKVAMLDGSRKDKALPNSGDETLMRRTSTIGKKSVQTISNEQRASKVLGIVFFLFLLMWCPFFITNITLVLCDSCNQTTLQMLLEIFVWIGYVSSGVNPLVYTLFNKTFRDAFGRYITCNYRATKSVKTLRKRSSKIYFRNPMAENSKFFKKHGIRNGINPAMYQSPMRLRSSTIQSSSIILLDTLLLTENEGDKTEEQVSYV
Assay: Human 5-HT2B radioligand binding assay ([3H]-LSD)
Parameters: host or cells: cell membrane, dosed as 1 unit/well
Settings: [3H]-LSD displacement (Table 55); read-out: 5-HT2B, IC50
measured_parameter: IC50 (nM)
Numbers only, in nM.

Which IC50 is listed for COc1ccc2[nH]cc(CCN(C)CCOC(F)F)c2c1 ? 171

###

Experiment: Pharmacokinetic studies in rat (i.v.)
Type: in vivo
Conditions: male, Sprague-Dawley, rat, plasma, iv, rat plasma, i.v., mean of 3 rats; dose 1.37 mg/kg (I-71, I-128), 1.33 mg/kg ((S) I-67); read-out: AUC0-tlast, Mean ± SD
Record form. Attribute: AUC(0-t). Fill in for each entry.
Give bare numbers, in ng·h/mL.

{"compound": "COc1ccc2[nH]cc(CCN3CC[C@H](OC(F)F)C3)c2c1 [(S) I-67]", "AUC(0-t) [ng·h/mL]": 484}
{"compound": "COc1ccc2[nH]cc(CCN(C)CCOC(F)F)c2c1", "AUC(0-t) [ng·h/mL]": 275}

Consider the additional compound presented here.
Fill in: AUC(0-t) of CN(C)CCc1c[nH]c2ccc(OCCOC(F)F)cc12 is ___ 92.5

###

Provide the reported pEC50 of each item.
Biological target: human 5-HT1A receptor (Homo sapiens, UniProt P08908)
Sequence (P08908 whole entry): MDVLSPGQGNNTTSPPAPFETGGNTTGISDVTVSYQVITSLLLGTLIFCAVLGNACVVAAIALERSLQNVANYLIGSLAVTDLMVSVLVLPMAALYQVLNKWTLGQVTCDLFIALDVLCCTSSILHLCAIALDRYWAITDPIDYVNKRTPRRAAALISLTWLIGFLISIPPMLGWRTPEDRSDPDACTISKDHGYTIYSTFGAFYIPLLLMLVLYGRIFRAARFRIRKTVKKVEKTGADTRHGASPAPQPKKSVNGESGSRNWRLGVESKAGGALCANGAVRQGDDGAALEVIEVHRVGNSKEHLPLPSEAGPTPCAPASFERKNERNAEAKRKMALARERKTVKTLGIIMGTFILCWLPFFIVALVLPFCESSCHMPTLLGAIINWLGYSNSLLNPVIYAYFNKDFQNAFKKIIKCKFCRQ
Assay: Human 5HT1A cAMP assay in CHO-K1 cells
Format: cell-based
Set-up: expressed in transfected cells
Answers are plain numbers, as −log10 of the molar value.

{"compound": "CCN(C)CCc1c[nH]c2ccc(SC)cc12", "pEC50": 8.04}

Give pEC50 for each of the items listed below.
1. [2H]C([2H])([2H])N(CCc1c[nH]c2ccc(SC)cc12)C([2H])([2H])[2H]
2. COc1ccc2[nH]cc(CCN3CC[C@H](OC(F)F)C3)c2c1 [(S) I-67]

[7.95, 7.94]

###

Please provide measured RFU@10 μM for the entries that follow.
Biological target: human 5-HT2A receptor (Homo sapiens, UniProt P28223)
Sequence (P28223 whole entry): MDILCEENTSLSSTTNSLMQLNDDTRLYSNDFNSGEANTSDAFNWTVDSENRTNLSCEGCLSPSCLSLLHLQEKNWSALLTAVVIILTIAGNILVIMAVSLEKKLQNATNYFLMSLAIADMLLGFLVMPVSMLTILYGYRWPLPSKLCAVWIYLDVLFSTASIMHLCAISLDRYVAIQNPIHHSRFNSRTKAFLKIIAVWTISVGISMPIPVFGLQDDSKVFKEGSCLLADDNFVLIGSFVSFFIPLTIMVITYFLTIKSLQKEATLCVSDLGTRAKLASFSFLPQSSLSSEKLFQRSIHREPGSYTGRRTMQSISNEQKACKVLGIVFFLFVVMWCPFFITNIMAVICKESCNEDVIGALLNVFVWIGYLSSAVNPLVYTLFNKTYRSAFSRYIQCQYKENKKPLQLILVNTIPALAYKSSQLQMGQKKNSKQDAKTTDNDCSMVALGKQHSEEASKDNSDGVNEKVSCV
Experiment: Human 5-HT2A functional FLIPR assay (agonist mode)
Format: cell-based
Design: expressed in transfected cells; host or cells: HTR2A&Gα15-HEK293 (tetracycline induction)
Conditions: @10 μM, RFU=Fmax−Fmin (Table 39)
Give bare numbers, in RFU.

Observe how each entry below is paired with its result.
{"compound": "COc1ccc2[nH]cc(CCN3CC[C@@H](OC)C3)c2c1 [(R) I-66]", "endpoint_value": 752}
{"compound": "CN(CCOC(F)F)CCc1c[nH]c2ccccc12 [Compound I-130]", "endpoint_value": 247}

// query RFU@10 μM value for entry COc1ccc2[nH]cc(CCN3CC[C@@H](OC(F)F)C3)c2c1 [(R) I-67] 225

###

Experiment: Pharmacokinetic studies in rat (i.v.)
Assay type: in vivo
Details: male, Sprague-Dawley, rat, plasma, iv, 1.14 mg/kg, I-13 1.14 mg/kg i.v., rat plasma, 1 h, Mean ± SD; read-out: Plasma concentration
measured_parameter: concentration at 1 h (ng/mL)
Answers are plain numbers, in ng/mL.

Please give the measured concentration at 1 h for this molecule: CCN(C)CCc1c[nH]c2ccc(SC)cc12 42.9

###

Please provide measured Remaining Percentage (%) for the entries that follow.
Assay: Rat liver microsomes stability
Format: in vitro ADME
Details: rat liver microsomes, With Cofactors, 30 min
Numbers only, in %.

For orientation, consider the following solved cases.
{"compound": "O=C(O)Cc1ccccc1Nc1c(Cl)cccc1Cl", "endpoint_value": 11.86}
{"compound": "COc1ccc2[nH]cc(CCN(C)CCOC(F)F)c2c1", "endpoint_value": 10.63}

Entry under review: COc1ccc2[nH]cc(CCN3CC[C@@H](OC(F)F)C3)c2c1 [(R) I-67] . Reported Remaining Percentage (%)? 15.35

###

Give measured AUC(0-t) for each item. Keep answers brief.
Test: Pharmacokinetic studies in rat (i.v.)
Assay type: in vivo
Conditions: male, Sprague-Dawley, rat, plasma, iv, rat plasma, i.v., first individual rat (R01/R04); dose 1.37 mg/kg (I-71, I-128), 1.33 mg/kg ((S) I-67); read-out: AUC0-tlast
Give bare numbers, in ng·h/mL.

Past entries and their recorded results:
{"compound": "COc1ccc2[nH]cc(CCN3CC[C@H](OC(F)F)C3)c2c1 [(S) I-67]", "AUC(0-t) (ng·h/mL)": 470}
{"compound": "CN(C)CCc1c[nH]c2ccc(OCCOC(F)F)cc12 [Compound I-128]", "AUC(0-t) (ng·h/mL)": 99}

In the following, a different compound is considered.
# get_value(readout='AUC(0-t)', item= COc1ccc2[nH]cc(CCN(C)CCOC(F)F)c2c1 [Compound I-71] ) 253

###

Test: Pharmacokinetic studies in rat (i.v.)
Type: in vivo
Conditions: male, Sprague-Dawley, rat, plasma, iv, 1.1 mg/kg, I-1 1.10 mg/kg i.v., rat plasma, individual rats R04-R06; estimated from 2 points only; read-out: Apparent t1/2 (converted)
Protocol: Animals: Male Sprague-Dawley rats (˜225-350 g) from Charles River Labs were acclimatized for a minimum of 5 days prior to start of study procedures. Body weights were recorded on the day of dosing. Any abnormalities were documented including presence/absence of wet dog shakes/back muscle contractions (WDS/BMC). Dosing: Formulations were administered intravenously (i.v.) via the tail vein using a 25 G needle connected to a 1 cc syringe. […]
measured_parameter: half-life (min)
Give bare numbers, in min.

What does the record list as half-life for [2H]C([2H])([2H])N(CCc1c[nH]c2ccc(SC)cc12)C([2H])([2H])[2H] ? 10.4
